These measurements were taken from the RNAGym collection of RNA variant scans (doi:10.1093/molbev/msab373).

B1: Azoarcus group I ribozyme (parent)
chain: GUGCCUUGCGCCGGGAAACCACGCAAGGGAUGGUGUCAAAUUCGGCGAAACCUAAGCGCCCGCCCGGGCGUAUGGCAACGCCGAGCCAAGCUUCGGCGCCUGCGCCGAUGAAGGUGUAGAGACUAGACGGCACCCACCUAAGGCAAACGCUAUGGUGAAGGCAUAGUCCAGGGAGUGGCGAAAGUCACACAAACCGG

Variants of: B1
METHOD_NOTES: reverse-splicing fitness (ratio to wild type); higher = more active; in vitro selection; Mg2+ level not given
Listing of recorded reverse-splicing fitness by entry.
Format: numeric value only, no unit, no commentary.

VARIANT: A111G A120G A145C
reverse-splicing fitness: 0.266
--
VARIANT: C82U A111U C169A
reverse-splicing fitness: 0.00848
--
VARIANT: C82A A120G A145G C150A C169A
reverse-splicing fitness: 0.0112
--
VARIANT: C82A A145G C150A C169G U176A
reverse-splicing fitness: 0.0164
--
VARIANT: C82G A111C A120G A145G C150A C169A U176A
reverse-splicing fitness: 0.0181

We next turn to a different variant, shown below.
Query: // Input: C82U A111U A145C C150G U176G . Output its reverse-splicing fitness only.
Response: 0.00423
